Assign relative viability to each entry below.
Test system: NCI-H2126
Experimental Protocol: relative viability (nuclei count vs DMSO), 5 days (fraction); higher = more cells survive
Run Conditions: first compound 0.8 µM

Look over these answered cases.
molecule="Nc1cccc2c1CN(C1CCC(=O)NC1=O)C2=O (centres undefined) [Lenalidomide] + O=C(CCCCCCC(=O)Nc1ccccc1)NO [Vorinostat] (partner 1 µM)" result=0.747
molecule="Nc1cccc2c1CN(C1CCC(=O)NC1=O)C2=O (centres undefined) [Lenalidomide] + CCNC(=O)c1noc(-c2cc(C(C)C)c(O)cc2O)c1-c1ccc(CN2CCOCC2)cc1 [Luminespib] (partner 0.01 µM)" result=0.935
molecule="Nc1cccc2c1CN(C1CCC(=O)NC1=O)C2=O (centres undefined) [Lenalidomide] + O=C(c1cc(Cc2n[nH]c(=O)c3ccccc23)ccc1F)N1CCN(C(=O)C2CC2)CC1 [Olaparib] (partner 8 µM)" result=0.857

Here's the next entry for you.
Entry Nc1cccc2c1CN(C1CCC(=O)NC1=O)C2=O (centres undefined) [Lenalidomide] + Cc1nc(NC(=O)N2CCC[C@H]2C(N)=O)sc1-c1ccnc(C(C)(C)C(F)(F)F)c1 [Alpelisib] (partner 2 µM) , relative viability reported as 0.75

* * *

System: NCI-H1755
Experimental Protocol: relative viability (nuclei count vs DMSO), 5 days (fraction); higher = more cells survive
Run Conditions: first compound 6.325 µM
Assign relative viability to each entry below.
Numbers only.

// for each compound in input: emit relative viability
1. Cc1csc(=NC2CCCCC2)n1/N=C/c1ccc(O)c(O)c1O [MIM1] + COc1cc2c(Oc3ccc(NC(=O)C4(C(=O)Nc5ccc(F)cc5)CC4)cc3F)ccnc2cc1OCCCN1CCOCC1 [Foretinib] (partner 0.25 µM)
2. Cc1csc(=NC2CCCCC2)n1/N=C/c1ccc(O)c(O)c1O [MIM1] + C[C@]1(O)C[C@@H](c2nc(-c3ccc4ccc(-c5ccccc5)nc4c3)c3c(N)nccn32)C1 [Linsitinib] (partner 1 µM)

(A)
[0.72, 0.71]

* * *

Test system: NCI-H520
Experimental Protocol: relative viability (nuclei count vs DMSO), 5 days (fraction); higher = more cells survive
Run Conditions: first compound 0.8 µM
Assign relative viability to each entry below.
One number for each entry.

Look over these answered cases.
compound="Nc1cccc2c1CN(C1CCC(=O)NC1=O)C2=O (stereo unspecified) [Lenalidomide] + O=C(c1cc(Cc2n[nH]c(=O)c3ccccc23)ccc1F)N1CCN(C(=O)C2CC2)CC1 [Olaparib] (partner 8 µM)" readout_name="relative viability" numeric_result=0.359
compound="Nc1cccc2c1CN(C1CCC(=O)NC1=O)C2=O (stereo unspecified) [Lenalidomide] + Cc1nc(NC(=O)N2CCC[C@H]2C(N)=O)sc1-c1ccnc(C(C)(C)C(F)(F)F)c1 [Alpelisib] (partner 2 µM)" readout_name="relative viability" numeric_result=0.922
compound="Nc1cccc2c1CN(C1CCC(=O)NC1=O)C2=O (stereo unspecified) [Lenalidomide] + C[C@]1(O)C[C@@H](c2nc(-c3ccc4ccc(-c5ccccc5)nc4c3)c3c(N)nccn32)C1 [Linsitinib] (partner 1 µM)" readout_name="relative viability" numeric_result=1.15
compound="Nc1cccc2c1CN(C1CCC(=O)NC1=O)C2=O (stereo unspecified) [Lenalidomide] + Cc1nc(Nc2ncc(C(=O)Nc3c(C)cccc3Cl)s2)cc(N2CCN(CCO)CC2)n1 [Dasatinib] (partner 0.075 µM)" readout_name="relative viability" numeric_result=0.192
compound="Nc1cccc2c1CN(C1CCC(=O)NC1=O)C2=O (stereo unspecified) [Lenalidomide] + CC(C)C[C@H](NC(=O)[C@H](Cc1ccccc1)NC(=O)c1cnccn1)B(O)O [Bortezomib] (partner 0.002 µM)" readout_name="relative viability" numeric_result=0.933

Here's the next entry for you.
Entry Nc1cccc2c1CN(C1CCC(=O)NC1=O)C2=O (stereo unspecified) [Lenalidomide] + CC(=O)Nc1cccc(-n2c(=O)n(C3CC3)c(=O)c3c(Nc4ccc(I)cc4F)n(C)c(=O)c(C)c32)c1 [Trametinib] (partner 0.02 µM) , relative viability reported as 0.615

* * *

System: NCI-H2126
Experimental Protocol: relative viability (nuclei count vs DMSO), 5 days (fraction); higher = more cells survive
Run Conditions: first compound 0.253 µM
Readout Name: relative viability
One number for each entry.

Look over these answered cases.
compound="Nc1cccc2c1CN(C1CCC(=O)NC1=O)C2=O (stereo not given) [Lenalidomide] + CC(C)C[C@H](NC(=O)[C@H](Cc1ccccc1)NC(=O)c1cnccn1)B(O)O [Bortezomib] (partner 0.002 µM)" numeric_result=1.17
compound="Nc1cccc2c1CN(C1CCC(=O)NC1=O)C2=O (stereo not given) [Lenalidomide] + O=C(CCCCCCC(=O)Nc1ccccc1)NO [Vorinostat] (partner 1 µM)" numeric_result=0.771
compound="Nc1cccc2c1CN(C1CCC(=O)NC1=O)C2=O (stereo not given) [Lenalidomide] + COc1cc2c(Oc3ccc(NC(=O)C4(C(=O)Nc5ccc(F)cc5)CC4)cc3F)ccnc2cc1OCCCN1CCOCC1 [Foretinib] (partner 0.25 µM)" numeric_result=1.33

// for each compound in input: emit relative viability
1. Nc1cccc2c1CN(C1CCC(=O)NC1=O)C2=O (stereo not given) [Lenalidomide] + NC(=O)Nc1cc(-c2cccc(F)c2)sc1C(=O)N[C@H]1CCCNC1 [AZD7762] (partner 0.2 µM)
2. Nc1cccc2c1CN(C1CCC(=O)NC1=O)C2=O (stereo not given) [Lenalidomide] + O=C(c1cc(Cc2n[nH]c(=O)c3ccccc23)ccc1F)N1CCN(C(=O)C2CC2)CC1 [Olaparib] (partner 8 µM)

(A)
0.973
0.934

* * *

System: NCI-H2347
Experimental Protocol: relative viability (nuclei count vs DMSO), 5 days (fraction); higher = more cells survive
Run Conditions: first compound 0.06325 µM
Readout Name: relative viability
Give bare numbers.

compound="CCNC(=O)c1noc(-c2cc(C(C)C)c(O)cc2O)c1-c1ccc(CN2CCOCC2)cc1 [Luminespib] + Nc1ncn([C@H]2C[C@H](O)[C@@H](CO)O2)c(=O)n1 [Decitabine] (partner 2 µM)" numeric_result=0.431

// for each compound in input: emit relative viability
1. CCNC(=O)c1noc(-c2cc(C(C)C)c(O)cc2O)c1-c1ccc(CN2CCOCC2)cc1 [Luminespib] + CC(C)C[C@H](NC(=O)[C@H](Cc1ccccc1)NC(=O)c1cnccn1)B(O)O [Bortezomib] (partner 0.002 µM)
2. CCNC(=O)c1noc(-c2cc(C(C)C)c(O)cc2O)c1-c1ccc(CN2CCOCC2)cc1 [Luminespib] + CC(=O)Nc1cccc(-n2c(=O)n(C3CC3)c(=O)c3c(Nc4ccc(I)cc4F)n(C)c(=O)c(C)c32)c1 [Trametinib] (partner 0.02 µM)
3. CCNC(=O)c1noc(-c2cc(C(C)C)c(O)cc2O)c1-c1ccc(CN2CCOCC2)cc1 [Luminespib] + C[C@@H](Oc1cc(-c2cnn(C3CCNCC3)c2)cnc1N)c1c(Cl)ccc(F)c1Cl [Crizotinib] (partner 1 µM)

(A)
[0.587, 0.254, 0.315]

* * *

Tested on: LOU-NH91
Experimental Protocol: relative viability (nuclei count vs DMSO), 5 days (fraction); higher = more cells survive
Run Conditions: first compound 0.1 µM
Assign relative viability to each entry below.
Numbers only.

compound="Cc1cn(-c2cc(NC(=O)c3ccc(C)c(Nc4nccc(-c5cccnc5)n4)c3)cc(C(F)(F)F)c2)cn1 [Nilotinib] + Nc1nc2[nH]cc(CCc3ccc(C(=O)N[C@@H](CCC(=O)O)C(=O)O)cc3)c2c(=O)[nH]1 [Pemetrexed] (partner 0.2 µM)" target_or_system=LOU-NH91 readout_name="relative viability" numeric_result=0.403
compound="Cc1cn(-c2cc(NC(=O)c3ccc(C)c(Nc4nccc(-c5cccnc5)n4)c3)cc(C(F)(F)F)c2)cn1 [Nilotinib] + Cc1nc(NC(=O)N2CCC[C@H]2C(N)=O)sc1-c1ccnc(C(C)(C)C(F)(F)F)c1 [Alpelisib] (partner 2 µM)" target_or_system=LOU-NH91 readout_name="relative viability" numeric_result=0.676
compound="Cc1cn(-c2cc(NC(=O)c3ccc(C)c(Nc4nccc(-c5cccnc5)n4)c3)cc(C(F)(F)F)c2)cn1 [Nilotinib] + COc1cccc2cc(-c3nc([C@H]4CC[C@H](C(=O)O)CC4)n4ncnc(N)c34)[nH]c12 [OSI-027] (partner 0.5 µM)" target_or_system=LOU-NH91 readout_name="relative viability" numeric_result=0.727

Here's the next entry for you.
Entry Cc1cn(-c2cc(NC(=O)c3ccc(C)c(Nc4nccc(-c5cccnc5)n4)c3)cc(C(F)(F)F)c2)cn1 [Nilotinib] + Nc1ncn([C@H]2C[C@H](O)[C@@H](CO)O2)c(=O)n1 [Decitabine] (partner 2 µM) , relative viability reported as 0.837

* * *

System: NCI-H2023
Experimental Protocol: relative viability (nuclei count vs DMSO), 5 days (fraction); higher = more cells survive
Run Conditions: first compound 0.2 µM
Assign relative viability to each entry below.
One number for each entry.

Look over these answered cases.
compound="CN1CCN(CCOc2cc(OC3CCOCC3)c3c(Nc4c(Cl)ccc5c4OCO5)ncnc3c2)CC1 [Saracatinib] + N=C(N)NC(=N)NCCc1ccccc1 [Phenformin] (partner 250 µM)" numeric_result=0.303
compound="CN1CCN(CCOc2cc(OC3CCOCC3)c3c(Nc4c(Cl)ccc5c4OCO5)ncnc3c2)CC1 [Saracatinib] + Nc1ncn([C@H]2C[C@H](O)[C@@H](CO)O2)c(=O)n1 [Decitabine] (partner 2 µM)" numeric_result=0.176
compound="Cc1csc(=NC2CCCCC2)n1/N=C/c1ccc(O)c(O)c1O [MIM1] + O=C(CCCCCCC(=O)Nc1ccccc1)NO [Vorinostat] (partner 1 µM)" numeric_result=0.55
compound="CCNC(=O)c1noc(-c2cc(C(C)C)c(O)cc2O)c1-c1ccc(CN2CCOCC2)cc1 [Luminespib] + CS(=O)(=O)N1CCN(Cc2cc3nc(-c4cccc5[nH]ncc45)nc(N4CCOCC4)c3s2)CC1 [Pictilisib] (partner 1 µM)" numeric_result=0.0954

Here's the next entry for you.
Entry Cc1csc(=NC2CCCCC2)n1/N=C/c1ccc(O)c(O)c1O [MIM1] + Cc1nc(NC(=O)N2CCC[C@H]2C(N)=O)sc1-c1ccnc(C(C)(C)C(F)(F)F)c1 [Alpelisib] (partner 2 µM) , relative viability reported as 0.564
